FYI, the data here is from the supplement of paper PMC9170038.

test system: K4 kissing-loop RNA reporter; assay: apparent KD of K4 kissing-loop reporter; higher = weaker reporter binding; conditions: Eterna round: R107; input ligand: FMN 200 uM;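 further: bound reporter read as fluorescence of individual clusters on recovered sequencing chips by microscopy, with normalized cluster intensities fitted with a binding model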
apparent KD of K4 kissing-loop reporter by entry:
Provide the reading as a plain figure in nM.

Tell me measured apparent KD of K4 kissing-loop reporter for AAUGUGCAGGGAAGGAGCGUAGUCCAGUGCUGUUGGAGUUAAAUACCAGUGAUGUUGGUUAUACAGGUAGGUCGCCCUAAAGCGC [whbob_Ex_Arginine_B_2th160] please.
141

Supply apparent KD of K4 kissing-loop reporter value. Item: AAGUGUUCUAGUGAUACCAGACAUUUCUAUUUUAUCUUUAUAGCUAAGUGAUGUUUAGCAGUCCCUUGGCAGCACUAUUUCACUA [JR_SSTheophyB_Sub017]
123

Give reported apparent KD of K4 kissing-loop reporter value for UACUUUAAUUUAUAACUAUCUUUAUUUUGUCAGGAUAUCGUAUUGUCGAGAAGGGACUCUCUCAAGUGAUGUUUGAGAAAUCGUU [JR_SSFMNA_Sub024]
84.8

Please report apparent KD of K4 kissing-loop reporter for the following sequence: UGGACCUGACUCGAUAAGAGUCAAUGAGAUACCAGCCACGAAAGUGGCCCUUGGCAGCUCUGCCAGUGAUGUUGGUCAAGGUCCU [#SwitchBubble 5 #StaticStem]
1280

Consider the sequence CUAUAUAGUGAUGUUAUAUAGAUAACAGAUACCAGCUAGAAAACUAGCCCUUGGCAGCUGAUAAGGGAAAGUAUAAUUGUGUAAA [AstroSTH-A#DifdesignED20.18] and give its recorded apparent KD of K4 kissing-loop reporter.
82.1

Next:
State its apparent KD of K4 kissing-loop reporter for this sequence: CAGAACUUGUAUACAGGGUAUGUAAGAGAUACCAGUCAAAUUAAAGACCCUUGGCAGCUCAGGCGAGUGAUGUUCGCAGGCUAAC [Exclusion Theophylline A GF 18]
103

Hello, please tell me recorded apparent KD of K4 kissing-loop reporter for this one: GUAUCGCUAGGAGGAUAUUCCAUUUUACAUAGAAAUGGCUAUGCGGAGUGAUGUUCCGAUUUACGGGAAGAAGGCCUAGUGAUAC [FMN B 21]
137

Look up apparent KD of K4 kissing-loop reporter of GACUCAUGUAGAAGGAGCGUCAGAAGCUACAGACAUGAGUGAUGUUCAUGUUAGUUGAUUUGACAGGUAGGUCGCUACAGCAGGA [KL-SSArg B15 #analogue] and report it.
280

Fill in apparent KD of K4 kissing-loop reporter for record AAGCGUGUGGCGGCCGCCACUAGUCUCCAGUGAUGUUGGAGAUAUCACGUAAGUGAUAUCCGACAUAGGACCGGGCCAUAUGGAA [Same State - Tryptophan B (Freestyle 22)]
587

Given GAAUAAUAUGUACCAGUGAUGUUGGUACAACGAGGACCGGUACGGCCGCCACUCGGAUACGAGUGGAUACAUCACUGACCAUUCG [(H1)-(H2)-(Trp1)-(Trp2)-(T)'-(H)'-(T)''_Design9] , respond with its apparent KD of K4 kissing-loop reporter.
326
